# Target System: T1, human GIP receptor (human, UniProt P48546 22-466)
# T1 sequence (looked up): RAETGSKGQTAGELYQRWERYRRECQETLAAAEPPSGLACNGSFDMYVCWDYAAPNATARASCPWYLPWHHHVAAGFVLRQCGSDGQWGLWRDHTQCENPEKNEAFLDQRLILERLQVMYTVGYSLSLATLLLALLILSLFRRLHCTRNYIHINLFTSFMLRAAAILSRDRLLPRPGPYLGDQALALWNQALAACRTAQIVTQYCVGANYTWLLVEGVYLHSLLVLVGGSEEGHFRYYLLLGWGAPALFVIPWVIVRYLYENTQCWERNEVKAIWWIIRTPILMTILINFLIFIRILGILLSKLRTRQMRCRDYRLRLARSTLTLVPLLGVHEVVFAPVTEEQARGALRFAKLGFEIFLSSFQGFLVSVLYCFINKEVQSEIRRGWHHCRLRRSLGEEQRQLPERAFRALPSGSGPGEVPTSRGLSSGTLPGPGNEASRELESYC
# Protocol Description: cell-based or functional assay
# Emax (10 µM), % of native GIP per record follows
Measured Metric: Emax (10 µM), % of native GIP (%)

Binder: HAEGTFISDYSTILDNLAARDFVNWLLAQKITD [GIP-GLP-2 co-agonist 9]
Measured Metric: Emax (10 µM), % of native GIP
Numeric Value: 100
//
Binder: HADGTFISDYSTILDNLAARDFINWLIQTKITD [GIP-GLP-2 co-agonist 3]
Measured Metric: Emax (10 µM), % of native GIP
Numeric Value: 100
//
Binder: HAEGTFSDEYSTILDNLAARDFINWLIQTKITD [GIP-GLP-2 co-agonist 5]
Measured Metric: Emax (10 µM), % of native GIP
Numeric Value: 75
//
Binder: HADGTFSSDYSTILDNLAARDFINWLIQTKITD [GIP-GLP-2 co-agonist 13]
Measured Metric: Emax (10 µM), % of native GIP
Numeric Value: 91
//
Binder: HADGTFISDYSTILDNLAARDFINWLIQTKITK [GIP-GLP-2 co-agonist 18]
Measured Metric: Emax (10 µM), % of native GIP
Numeric Value: 89
//
Binder: HADGTFISDYSTILDNLAARDFINWLIQTKGTD [GIP-GLP-2 co-agonist 16]
Measured Metric: Emax (10 µM), % of native GIP
Numeric Value: 95
//
Binder: HADGTFISDYSTILDNLAARDFINWLIQTKGKK [GIP-GLP-2 co-agonist 19]
Measured Metric: Emax (10 µM), % of native GIP
Numeric Value: 93
//
Binder: HGDGTFISDYSTILDNLAARDFINWLIQTKITD [GIP-GLP-2 co-agonist 11]
Measured Metric: Emax (10 µM), % of native GIP
Numeric Value: 95
//
Binder: HADGTFISEYSTILDNLAARDFINWLIQTKITD [GIP-GLP-2 co-agonist 15]
Measured Metric: Emax (10 µM), % of native GIP
Numeric Value: 92
//
Binder: HADGTFIDDYSTILDNLAARDFINWLIQTKITD [GIP-GLP-2 co-agonist 14]
Measured Metric: Emax (10 µM), % of native GIP
Numeric Value: 94
//
Binder: HAEGTFISDMNTILDNLAARDFINWLIQTKITD [GIP-GLP-2 co-agonist 6]
Measured Metric: Emax (10 µM), % of native GIP
Numeric Value: 83
//
Binder: HADGTFISDYSTILDNLAARDFINWLIQTKIKD [GIP-GLP-2 co-agonist 17]
Measured Metric: Emax (10 µM), % of native GIP
Numeric Value: 95
//
Binder: HVDGTFISDYSTILDNLAARDFINWLIQTKITD [GIP-GLP-2 co-agonist 12]
Measured Metric: Emax (10 µM), % of native GIP
Numeric Value: 96
